Tested on: Wnt/β-catenin pathway
Assay: Wnt reporter assay (TCF-Luciferase, Firefly) in DBTRG-05MG cells
Format: cell-based
Conditions: Homo sapiens, 24 hours after compound addition
pIC50: −log10 of the molar value.
This section presents compounds with their documented pIC50 values.

{"compound": "COc1ccc2c(c1)c(=O)n(C[C@H]1CC[C@H](C(=O)N3CCN(C(=O)C4CC4)[C@H](C)C3)CC1)c(=O)n2C [Example 150]", "test.system": "Wnt/β-catenin pathway", "result": "4.52 to 6.52"}
{"compound": "O=C(C1CC1)N1CCN(C(=O)[C@H]2CC[C@H](Cn3c(=O)c4ccccc4n(CCF)c3=O)CC2)CC1 [Example 79]", "test.system": "Wnt/β-catenin pathway", "result": "4.52 to 6.52"}
{"compound": "CC(c1ccccc1)N1CCN(C(=O)C2CCC(Cn3c(=O)[nH]c4ccccc4c3=O)CC2)CC1 (centres unmarked) [Example 50]", "test.system": "Wnt/β-catenin pathway", "result": "4.52 to 6.52"}

Return the recorded pIC50 value; entry: COc1ccc2[nH]c(=O)n(C[C@H]3CC[C@H](C(=O)N4CCN(C(=O)C5CC5)[C@H](C)C4)CC3)c(=O)c2c1 [Example 157]
4.52 to 6.52

Return the recorded pIC50 value; entry: COc1ccc2[nH]c(=O)n(C[C@H]3CC[C@H](C(=O)N4CCN(c5ncccn5)CC4)CC3)c(=O)c2c1 [Example 98]
4.52 to 6.52

Return the recorded pIC50 value; entry: O=C1CN(C[C@H]2CC[C@H](C(=O)N3CCN(c4ccccn4)CC3)CC2)C(=O)c2ccccc2N1 [Example 13]
4.52 to 6.52

Return the recorded pIC50 value; entry: CCC(C)C(=O)N1CCN(C(=O)[C@H]2CC[C@H](Cn3c(=O)[nH]c4ccc(OC)cc4c3=O)CC2)CC1 (some centres unmarked) [Example 101]
4.52 to 6.52

Return the recorded pIC50 value; entry: CCCC(=O)N1CCN(C(=O)[C@H]2CC[C@H](Cn3c(=O)c4ccccc4n(C)c3=O)CC2)CC1 [Example 5]
4.52 to 6.52

###

Tested on: Wnt/β-catenin pathway
Assay: Wnt reporter assay (TCF-Luciferase, Firefly) in DBTRG-05MG cells
Type: cell-based
Settings: Homo sapiens, 24 hours after compound addition
recorded.metric: IC50

Examples with their reported IC50 follow.
{"smiles.repr": "COc1ccc2c(c1)c(=O)n(C[C@H]1CC[C@H](C(=O)N3CCN(C(=O)C4CCC4)CC3)CC1)c(=O)n2C", "IC50": "0.3 to 30 µM"}
{"smiles.repr": "O=C(C1CC1)N1CCN(C(=O)[C@H]2CC[C@H](Cn3c(=O)[nH]c4cc(Cl)ccc43)CC2)CC1", "IC50": "0.3 to 30 µM"}
{"smiles.repr": "CCOc1ccc2[nH]c(=O)n(C[C@H]3CC[C@H](C(=O)N4CCN(C(=O)C(C)C)CC4)CC3)c(=O)c2c1", "IC50": "0.3 to 30 µM"}
{"smiles.repr": "O=C(CCC1CCCC1)N1CCN(C(=O)[C@H]2CC[C@H](Cn3c(=O)[nH]c4ccccc4c3=O)CC2)CC1", "IC50": "0.3 to 30 µM"}

Next:
Return the recorded IC50 value; entry: COc1ccc2c(c1)c(=O)n(C[C@H]1CC[C@H](C(=O)N3CCN(CC4CC4)C(=O)C3)CC1)c(=O)n2C
0.3 to 30 µM
